Let's look at some compounds and their measured growth.
system: SF-268 CNS; assay: NCI-60 one-dose screen, 48 h (100 = growth as untreated, 0 = no growth, -100 = all killed); settings: 10 µM unless noted
This is part of a sample that, as a whole, favours compounds with a hit. Of some 83,000 tested, about 20% had one in any assay. The source made the active and inactive calls. How the source made its calls: active means growth percent below 10; inactive means the rest.

Molecular string: CC(C)C1=C[C@@]23CC[C@@H]4[C@](C)(CCC[C@@]4(C)C(=O)OCC#CCN4CCCC4)[C@H]2C[C@@H]1[C@H]1C(=O)OC(=O)[C@H]13
growth: 93.1% (inactive)

Molecular string: Nc1ccc(N2CCOCC2)cc1
growth: 107% (inactive)

Molecular string: O=S(=O)(NCCCNc1cc(-c2cn(-c3ccccc3)nc2-c2cccc(O)c2)ccn1)c1ccccc1
growth: 52.8% (inactive)

# ---- query compound ----
Please look up its growth: `CC(=O)C1=C(O)C=C2Oc3c(C(=O)/C=C/c4c(Cl)cccc4Cl)c(O)c(C)c(O)c3[C@]2(C)C1=O`
-20.4% (active)

* * *

system: K-562 leukemia; assay: NCI-60 one-dose screen, 48 h; conditions: 10 µM unless noted
The panel holds about 83,000 compounds, 20% with a hit somewhere; the sample as a whole holds those more often. Active and inactive are the calls of the source. The calls were made as follows: active = growth percent below 10; inactive = the rest.
Returns: one label drawn from active, inactive

Example results:
Molecular string: CCNS(=O)(=O)c1ncnc2nc[nH]c12
Label value: inactive
//
Molecular string: O=C(Nc1ccc(F)cc1)Nc1ccc(CCO)cc1
Label value: inactive

Field: outcome | Entry: `CC1=C(NCCN2CCCC2)C(=O)c2c(OCc3ccc(C(F)(F)F)cc3)cccc2C1=O`
active

For `COc1ccc(C(=O)/C=C/c2cc3ccccc3[nH]c2=O)cc1` , which call appears in the assay record?
inactive

For this compound, state the assay outcome: `COc1ccc2nc3cc(Cl)ccc3c(N3CCN(c4ccnc(N5CCN(C)CC5)n4)CC3)c2c1`
active

How was `NC1=CC(=O)C(=O)c2ccccc21` classified in this test?
inactive

Could you check what this test reported for `COc1ccc(CCN2CCCn3c2nc2ccccc2c3=O)cc1` ?
inactive

For this compound, state the assay outcome: `COc1cc(-c2c3c(nc4c2c(C)nn4-c2ccccc2)-c2ccccc2C(=O)C3=O)cc(OC)c1OC`
inactive

In this assay, the call recorded for `CCCCCCCCSC1=CC(=O)C(OC)=C(OC)C1=O` was what?
active

Status in this test for `O=C([C@@H](COCc1ccccc1)N1C(=O)[C@@H](N2C(=O)OC[C@@H]2c2ccccc2)[C@H]1/C=C/c1ccccc1)N1CCC(CCN2CCCCC2)CC1` ?
inactive

Which outcome was entered for the compound `CNC(=O)c1cc(Oc2ccc3nc(NC(=O)Nc4ccc(N5CCC(N(C)C)CC5)cc4)sc3c2)ccn1` in this test?
active

* * *

tested on: HCT-116 colon; experiment: NCI-60 one-dose screen, 48 h; conditions: 10 µM unless noted
This is part of a sample that, as a whole, favours compounds with a hit. Of some 83,000 tested, about 20% had one in any assay. Calls of active or inactive are those of the source. How the source made its calls: active means growth percent below 10; inactive means the rest.
// one of Y = active, N = inactive, no free text

Solved entries (count: 6):
Molecule: COc1ccc(-c2nc(Nc3cc(C)[nH]n3)c3ccccc3n2)cc1
Label value: N

Molecule: CC[C@H](Nc1ncnc(N)c1C(N)=O)c1nc2cccc(NCc3ccc(C(=O)NO)cc3)c2c(=O)n1-c1ccccc1
Label value: N

Molecule: CCOC(=O)CC(C)=N
Label value: N

Molecule: CC1=C(C)C(=O)OC([C@](C)(O)[C@]2(O)CC[C@@]3(O)[C@@H]4C[C@H]5O[C@]56CC=CC(=O)[C@]6(C)[C@H]4CC[C@]23COC(=O)c2ccc(C)o2)C1 (stereo partly drawn)
Label value: Y

Molecule: C=CCSc1nnc(-c2ccc(C(C)(C)C)cc2)n1-c1cccc(C(F)(F)F)c1
Label value: N

Molecule: Nc1cc(O)cc2cccnc12
Label value: N

Look up the recorded call for `COc1cc(-c2cc(-c3nc4ccc(Cl)cc4[nH]3)[nH]n2)cc(OC)c1OC` in this test.
N

Which result was noted for this molecule in the test: `CC(=O)Oc1cc2cnc3c4cc(OC(C)=O)c(OC(C)=O)cc4ccc3c2cc1OC(C)=O`
Y

Recorded values, source PubChem BioAssay (NCI).
